Values from patent US12643903B2

assay_target: EGFR (Homo sapiens, UniProt P00533, L858R/T790M)
Construct: endogenous in cells; host or cells: H1975
Sequence (P00533 25-1210 T790M/L858R): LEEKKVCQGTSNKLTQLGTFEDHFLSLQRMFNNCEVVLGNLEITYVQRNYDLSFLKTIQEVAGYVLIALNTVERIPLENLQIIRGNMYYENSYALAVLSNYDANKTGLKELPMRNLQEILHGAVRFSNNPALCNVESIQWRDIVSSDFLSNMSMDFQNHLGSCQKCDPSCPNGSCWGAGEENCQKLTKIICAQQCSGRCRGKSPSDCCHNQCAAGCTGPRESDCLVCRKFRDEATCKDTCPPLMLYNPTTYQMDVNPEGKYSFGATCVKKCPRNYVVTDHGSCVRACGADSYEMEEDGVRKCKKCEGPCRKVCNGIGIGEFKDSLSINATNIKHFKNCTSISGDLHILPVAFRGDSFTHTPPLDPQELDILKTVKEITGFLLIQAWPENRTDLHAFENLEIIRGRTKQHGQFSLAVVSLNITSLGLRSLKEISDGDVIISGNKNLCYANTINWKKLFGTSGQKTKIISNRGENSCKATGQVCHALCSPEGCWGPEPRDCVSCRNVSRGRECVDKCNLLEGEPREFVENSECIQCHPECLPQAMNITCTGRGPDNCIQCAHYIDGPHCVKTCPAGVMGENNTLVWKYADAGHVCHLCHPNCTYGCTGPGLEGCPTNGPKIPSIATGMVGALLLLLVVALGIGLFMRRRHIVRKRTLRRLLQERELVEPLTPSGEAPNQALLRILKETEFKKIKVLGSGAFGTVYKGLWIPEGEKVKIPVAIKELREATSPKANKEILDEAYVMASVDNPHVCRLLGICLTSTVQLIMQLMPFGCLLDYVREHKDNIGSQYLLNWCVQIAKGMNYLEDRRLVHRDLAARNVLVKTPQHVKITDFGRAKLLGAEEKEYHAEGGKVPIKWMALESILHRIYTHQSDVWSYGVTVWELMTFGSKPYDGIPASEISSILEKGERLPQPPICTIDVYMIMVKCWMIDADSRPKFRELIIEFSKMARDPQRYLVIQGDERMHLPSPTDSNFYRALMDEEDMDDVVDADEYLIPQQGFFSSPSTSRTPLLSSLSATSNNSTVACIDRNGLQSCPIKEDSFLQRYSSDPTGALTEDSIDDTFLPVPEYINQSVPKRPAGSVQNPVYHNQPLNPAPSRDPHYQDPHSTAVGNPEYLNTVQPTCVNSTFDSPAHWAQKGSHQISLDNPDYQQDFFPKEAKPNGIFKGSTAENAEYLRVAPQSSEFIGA
assay_text: Cell Degradation 1: EGFR degradation in H1975 cells, HTRF assay
Type: cell-based
condition_description: 16 h treatment, EGFR degradation by HTRF
observable: DC50 (nM)

compound	observable	value_measured
COc1cc(N2CCC(N3CCN(C(=O)[C@H]4CCN(c5ccc6c(c5)C(=O)N(C5CCC(=O)NC5=O)C6=O)C4)CC3)CC2)ccc1Nc1ncc(Cl)c(Nc2cccc3c2N(S(C)(=O)=O)CC3)n1 (some centres unmarked)	DC50	3.5
COc1cc(N2CCN(C3CCN(CCc4ccc(C5CCC(=O)NC5=O)cc4)CC3)CC2)ccc1Nc1ncc(Cl)c(Nc2cccc3c2N(S(C)(=O)=O)CC3)n1 (centres unmarked)	DC50	9.8
COc1cc(N2CCC(N3CCN(CCc4ccc(C5CCC(=O)NC5=O)cc4)CC3)CC2)ccc1Nc1ncc(Cl)c(Nc2cccc3c2N(S(C)(=O)=O)CC3)n1 (centres unmarked)	DC50	7
CS(=O)(=O)N1CCc2cccc(Nc3nc(Nc4ccc(N5CCC(N6CCN(C(=O)[C@@H]7CCN(c8ccc9c(c8)C(=O)N(C8CCC(=O)NC8=O)C9=O)C7)CC6)CC5)c(F)c4)nc4[nH]ccc34)c21 (some centres unmarked)	DC50	4.4
COc1cc(N2CCC(N3CCN(CCC4CCN(c5ccc(C6CCC(=O)NC6=O)c(F)c5)CC4)CC3)CC2)c(C)cc1Nc1ncc(Br)c(Nc2cccc3c2N(S(C)(=O)=O)CC3)n1 (centres unmarked)	DC50	96.4

1 = CS(=O)(=O)N1CCc2cccc(Nc3nc(Nc4ccc(N5CCC(N6CCN(C(=O)C7CN(c8ccc(C9CCC(=O)NC9=O)cc8)C7)CC6)CC5)c(F)c4)nc4[nH]ccc34)c21 (centres unmarked)
2 = CS(=O)(=O)N1CCc2cccc(Nc3nc(Nc4ccc(N5CCC(N6CCN(CCC7CCN(c8ccc(C9CCC(=O)NC9=O)cc8)CC7)CC6)CC5)c5c4OCC5)ncc3Cl)c21 (centres unmarked)
Which gives the smaller DC50 number: 1 or 2 ? Bench note: the answer is the label of the chosen record.
1

* * *

assay_target: EGFR (Homo sapiens, UniProt P00533, DEL746-750)
Construct: endogenous in cells; host or cells: HCC827
Sequence (P00533 with tags, fused parts or gaps DEL746-750): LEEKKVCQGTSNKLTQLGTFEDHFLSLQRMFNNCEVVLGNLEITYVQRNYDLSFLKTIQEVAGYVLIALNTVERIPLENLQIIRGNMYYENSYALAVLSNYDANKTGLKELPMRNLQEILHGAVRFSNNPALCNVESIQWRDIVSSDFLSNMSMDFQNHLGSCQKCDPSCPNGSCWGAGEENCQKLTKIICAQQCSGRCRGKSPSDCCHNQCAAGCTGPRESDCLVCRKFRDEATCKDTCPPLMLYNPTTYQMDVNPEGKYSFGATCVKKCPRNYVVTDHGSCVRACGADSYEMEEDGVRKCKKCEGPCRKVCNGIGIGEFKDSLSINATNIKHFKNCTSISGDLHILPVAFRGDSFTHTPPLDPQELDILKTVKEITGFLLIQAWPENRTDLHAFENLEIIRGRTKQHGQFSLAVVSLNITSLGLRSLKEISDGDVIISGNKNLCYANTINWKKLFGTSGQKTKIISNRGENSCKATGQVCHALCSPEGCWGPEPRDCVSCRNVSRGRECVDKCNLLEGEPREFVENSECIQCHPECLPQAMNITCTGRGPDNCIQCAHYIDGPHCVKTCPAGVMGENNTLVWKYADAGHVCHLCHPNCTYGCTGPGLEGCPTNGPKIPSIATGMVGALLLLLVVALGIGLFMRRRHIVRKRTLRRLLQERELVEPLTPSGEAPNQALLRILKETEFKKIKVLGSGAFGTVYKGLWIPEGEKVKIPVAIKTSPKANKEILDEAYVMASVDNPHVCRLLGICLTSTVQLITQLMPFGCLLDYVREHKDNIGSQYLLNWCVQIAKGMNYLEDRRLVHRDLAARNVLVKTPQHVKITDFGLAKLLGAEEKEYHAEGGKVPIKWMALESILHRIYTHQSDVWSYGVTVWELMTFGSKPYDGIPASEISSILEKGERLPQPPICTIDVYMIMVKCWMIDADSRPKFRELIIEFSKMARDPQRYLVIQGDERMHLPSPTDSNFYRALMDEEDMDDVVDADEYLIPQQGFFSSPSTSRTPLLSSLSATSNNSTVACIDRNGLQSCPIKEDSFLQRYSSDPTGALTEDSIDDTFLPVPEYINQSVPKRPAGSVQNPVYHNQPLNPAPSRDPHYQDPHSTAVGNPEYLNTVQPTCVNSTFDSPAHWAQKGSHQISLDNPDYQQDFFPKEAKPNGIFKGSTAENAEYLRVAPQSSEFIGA
Sequence (Q96SW2 whole entry partner): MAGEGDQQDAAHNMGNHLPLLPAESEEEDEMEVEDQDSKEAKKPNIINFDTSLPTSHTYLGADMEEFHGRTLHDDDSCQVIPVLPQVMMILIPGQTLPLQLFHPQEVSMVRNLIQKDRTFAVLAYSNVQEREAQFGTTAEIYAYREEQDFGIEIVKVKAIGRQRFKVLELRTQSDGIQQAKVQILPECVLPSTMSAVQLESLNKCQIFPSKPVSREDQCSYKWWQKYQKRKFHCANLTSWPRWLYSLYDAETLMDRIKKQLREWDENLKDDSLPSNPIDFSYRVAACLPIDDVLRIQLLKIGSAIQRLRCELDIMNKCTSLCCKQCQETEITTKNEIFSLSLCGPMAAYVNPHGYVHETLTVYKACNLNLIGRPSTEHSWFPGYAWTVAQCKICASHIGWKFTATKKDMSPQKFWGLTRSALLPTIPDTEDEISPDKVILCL
assay_text: Cell Degradation 2: EGFR degradation in HCC827 cells, HTRF assay
Assay type: cell-based
condition_description: 16 h treatment, EGFR degradation by HTRF
observable: DC50 (nM)

compound	DC50 [nM]
CS(=O)(=O)N1CCc2cccc(Nc3nc(Nc4ccc(N5CCC(N6CCN(CCC7CCN(c8ccc9c(c8)C(=O)N(C8CCC(=O)NC8=O)C9=O)CC7)CC6)CC5)c(F)c4)nc4[nH]ccc34)c21 (centres unmarked)	30.8

a = CS(=O)(=O)N1CCc2cccc(Nc3nc(Nc4ccc(N5CCC(N6CCN(CCc7ccc(C8CCC(=O)NC8=O)cc7)CC6)CC5)c(F)c4)nc4[nH]ccc34)c21 (centres unmarked)
b = COc1cc(N2CCC(N3CCN(C(=O)[C@H]4CCN(c5ccc6c(c5)C(=O)N(C5CCC(=O)NC5=O)C6=O)C4)CC3)CC2)ccc1Nc1ncc(Cl)c(Nc2cccc3c2N(S(C)(=O)=O)CC3)n1 (some centres unmarked)
c = CN(CCC1CCN(c2ccc(C3CCC(=O)NC3=O)cc2)CC1)C1CCN(c2ccc(Nc3ncc(Cl)c(Nc4cccc5c4N(S(C)(=O)=O)CC5)n3)c3c2CCO3)CC1 (centres unmarked)
d = CS(=O)(=O)N1CCc2cccc(Nc3nc(Nc4ccc(N5CCC(N6CCN(CCOc7cccc(C8CCC(=O)NC8=O)c7)CC6)CC5)c(F)c4)nc4[nH]ccc34)c21 (centres unmarked)
e = COc1cc(N2CCC(N3CCN(CCC4CCN(c5ccc(C6CCC(=O)NC6=O)cc5)CC4)CC3)CC2)c(C)cc1Nc1ncc(Br)c(Nc2cccc3c2N(S(C)(=O)=O)CC3)n1 (centres unmarked)
List items by DC50 in falling order. Response format: the labels, sorted as the prompt asks.
c, d, a, e, b

A = CS(=O)(=O)N1CCc2cccc(Nc3nc(Nc4ccc(N5CCC(N6CCN(CCc7ccc(NC8CCC(=O)NC8=O)cc7)CC6)CC5)c(F)c4)nc4[nH]ccc34)c21 (centres unmarked)
B = CS(=O)(=O)N1CCc2cccc(Nc3nc(Nc4ccc(N5CCC(N6CCN(CCc7ccc(C8CCC(=O)NC8=O)c(F)c7F)CC6)CC5)c(F)c4)nc4[nH]ccc34)c21 (centres unmarked)
Which of these two has the smaller recorded DC50: A or B ? Answer format: the label of the selected item.
A

a = CS(=O)(=O)N1CCc2cccc(Nc3nc(Nc4ccc(N5CCC(N6CCN(C(=O)C7CN(c8ccc(C9CCC(=O)NC9=O)cc8)C7)CC6)CC5)c(F)c4)nc4[nH]ccc34)c21 (centres unmarked)
b = COc1cc(N2CCC(N3CCN(CCC4CCN(c5ccc6c(c5)C(=O)N(C5CCC(=O)NC5=O)C6=O)CC4)CC3)CC2)c(C)cc1Nc1ncc(Br)c(Nc2cccc3c2N(S(C)(=O)=O)CC3)n1 (centres unmarked)
c = COc1cc(N2CCC(N3CCN(C(=O)C4CCN(CC5CCN(c6ccc7c(c6)C(=O)N(C6CCC(=O)NC6=O)C7=O)CC5)CC4)CC3)CC2)c(C)cc1Nc1ncc(Br)c(Nc2cccc3c2N(S(C)(=O)=O)CC3)n1 (centres unmarked)
Please list the entries, largest DC50 first. Write the labels in rank order as requested.
a, c, b
(a: 17.7 nM, c: 11.1 nM, b: 6.4 nM)

1 = CN(CCC1CCN(c2ccc3c(c2)C(=O)N(C2CCC(=O)NC2=O)C3=O)CC1)C1CCN(c2ccc(Nc3ncc(Cl)c(Nc4cccc5c4N(S(C)(=O)=O)CC5)n3)c3c2CCO3)CC1 (centres unmarked)
2 = COc1cc(N2CCC(N3CCN(CCC4CN(c5ccc(C6CCC(=O)NC6=O)cc5)C4)CC3)CC2)ccc1Nc1ncc(Cl)c(Nc2cccc3c2N(S(C)(=O)=O)CC3)n1 (centres unmarked)
3 = CS(=O)(=O)N1CCc2cccc(Nc3nc(Nc4ccc(N5CCC(N6CCN(CCC7CCN(c8ccc(C9CCC(=O)NC9=O)cc8)CC7)CC6)CC5)c5c4OCC5)ncc3Cl)c21 (centres unmarked)
// smallest DC50 at index 0, largest at the end Note for the reader: the ranking is given by listing the labels in the order requested.
3, 1, 2
(3: 8.9 nM, 1: 13.8 nM, 2: 1980 nM)

* * *

assay_target: EGFR LTC (Homo sapiens, UniProt P00533, C797S/L858R/T790M)
Construct: expressed in transfected cells; host or cells: BaF3
Sequence (P00533 25-1210 T790M/C797S/L858R): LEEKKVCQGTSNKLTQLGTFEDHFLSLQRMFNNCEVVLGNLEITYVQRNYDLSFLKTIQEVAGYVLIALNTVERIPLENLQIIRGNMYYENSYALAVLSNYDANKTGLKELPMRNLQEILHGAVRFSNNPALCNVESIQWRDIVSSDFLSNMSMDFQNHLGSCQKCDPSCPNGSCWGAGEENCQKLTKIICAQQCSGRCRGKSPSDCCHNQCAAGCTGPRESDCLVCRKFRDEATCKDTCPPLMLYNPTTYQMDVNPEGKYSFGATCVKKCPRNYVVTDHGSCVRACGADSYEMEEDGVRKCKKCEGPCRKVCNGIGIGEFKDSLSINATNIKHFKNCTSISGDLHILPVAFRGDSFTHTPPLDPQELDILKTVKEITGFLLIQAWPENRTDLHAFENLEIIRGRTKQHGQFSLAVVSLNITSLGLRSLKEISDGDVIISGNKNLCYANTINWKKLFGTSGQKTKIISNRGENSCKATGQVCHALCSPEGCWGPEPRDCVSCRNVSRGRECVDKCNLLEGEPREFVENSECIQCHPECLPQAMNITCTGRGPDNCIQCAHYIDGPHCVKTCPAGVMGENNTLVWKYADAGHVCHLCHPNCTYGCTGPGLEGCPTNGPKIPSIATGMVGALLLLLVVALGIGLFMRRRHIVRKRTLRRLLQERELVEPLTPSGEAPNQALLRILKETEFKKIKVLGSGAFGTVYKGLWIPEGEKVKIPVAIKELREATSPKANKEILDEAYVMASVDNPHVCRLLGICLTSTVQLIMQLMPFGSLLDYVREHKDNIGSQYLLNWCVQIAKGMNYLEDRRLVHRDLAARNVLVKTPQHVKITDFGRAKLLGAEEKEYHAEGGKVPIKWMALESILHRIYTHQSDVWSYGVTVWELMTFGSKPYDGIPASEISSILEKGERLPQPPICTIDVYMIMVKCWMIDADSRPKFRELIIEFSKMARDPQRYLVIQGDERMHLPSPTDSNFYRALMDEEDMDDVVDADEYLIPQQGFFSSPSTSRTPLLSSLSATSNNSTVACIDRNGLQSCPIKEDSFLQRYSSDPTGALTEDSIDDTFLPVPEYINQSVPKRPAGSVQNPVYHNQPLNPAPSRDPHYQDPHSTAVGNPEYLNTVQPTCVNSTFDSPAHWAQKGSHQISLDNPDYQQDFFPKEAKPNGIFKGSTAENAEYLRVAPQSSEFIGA
assay_text: Cell Degradation 3: EGFR degradation in BaF3 cells (LTC), HTRF assay
Assay type: cell-based
condition_description: 16 h treatment, EGFR degradation by HTRF
observable: DC50 (nM)

molecule	assay_target	DC50, nM
COc1cc(N2CCC(N3CCN(CC4CCN(c5ccc6c(c5)CN(C5CCC(=O)NC5=O)C6=O)CC4)CC3)CC2)c(C)cc1Nc1ncc(Br)c(Nc2cccc3c2N(S(C)(=O)=O)CC3)n1 (stereo not drawn)	EGFR LTC (Homo sapiens, UniProt P00533, C797S/L858R/T790M)	31

P = COc1cc(N2CCC(N3CCN(C4CC(c5ccc(NC6CCC(=O)NC6=O)cc5)C4)CC3)CC2)c(C)cc1Nc1ncc(Br)c(Nc2cccc3c2N(S(C)(=O)=O)CC3)n1 (stereo not drawn)
Q = CCc1cc(Nc2ncc(Br)c(Nc3ccc(F)c4c3N(S(C)(=O)=O)CC4)n2)c(OC)cc1N1CCC(N2CCN(CCc3cc(F)c([C@H]4CCC(=O)NC4=O)c(F)c3)CC2)CC1
R = CS(=O)(=O)N1CCc2cccc(Nc3nc(Nc4ccc(N5CCC(N6CCN(CCC7CCN(c8ccc(C9CCC(=O)NC9=O)cc8)CC7)CC6)CC5)c5c4OCC5)ncc3Cl)c21 (stereo not drawn)
Could you please order the items by DC50, going from the lowest number to the highest? Could you list the labels in the order requested?
Q, P, R
(Q: 24 nM, P: 70 nM, R: 443 nM)

1 = COc1cc(N2CCC(N3CCN(C[C@H]4CCN(c5ccc6c(c5)C(=O)N(C5CCC(=O)NC5=O)C6=O)C4)CC3)CC2)c(C)cc1Nc1ncc(Br)c(Nc2cccc3c2N(S(C)(=O)=O)CC3)n1 (stereo partly drawn)
2 = COc1cc(N2CCC(N3CCN(CCc4cc(F)c(C5CCC(=O)NC5=O)c(F)c4)CC3=O)CC2)c(C)cc1Nc1ncc(Br)c(Nc2cccc3c2N(S(C)(=O)=O)CC3)n1 (stereo not drawn)
Identify the entry with the larger DC50. Options: 1 and 2 Select an item and report its label.
1

* * *

assay_target: EGFR (Homo sapiens, UniProt P00533, L858R/T790M)
Construct: endogenous in cells; host or cells: H1975
assay_text: Cell Degradation 1: EGFR degradation in H1975 cells, HTRF assay
Format: cell-based
condition_description: 16 h treatment, EGFR degradation by HTRF
observable: DC50 (nM)

compound	observable	value_measured
CS(=O)(=O)N1CCc2cccc(Nc3nc(Nc4ccc(N5CCC(N6CCN(CCCC7CN(c8ccc9c(c8)C(=O)N(C8CCC(=O)NC8=O)C9=O)C7)CC6)CC5)c(F)c4)nc4[nH]ccc34)c21 (centres unmarked) [Example 19]	DC50	6.03
CS(=O)(=O)N1CCc2cccc(Nc3nc(Nc4ccc(N5CCC(N6CCN(CCC7CCN(c8cc(F)c(C9CCC(=O)NC9=O)c(F)c8)CC7)CC6)CC5)c(F)c4)nc4[nH]ccc34)c21 (centres unmarked) [Example 67]	DC50	13.8
COc1cc(Nc2nc(Nc3cccc4c3N(S(C)(=O)=O)CC4)c3cc[nH]c3n2)ccc1N1CCC(N2CCN(C(=O)C3CN(c4ccc5c(c4)C(=O)N(C4CCC(=O)NC4=O)C5=O)C3)CC2)CC1 (centres unmarked) [Example 73]	DC50	3.4
CS(=O)(=O)N1CCc2cccc(Nc3nc(Nc4ccc(N5CCC(N6CCN(CCCC7CN(c8ccc9c(c8)C(=O)N(C8CCC(=O)NC8=O)C9=O)C7)CC6)CC5)c5c4OCC5)ncc3Cl)c21 (centres unmarked) [Example 55]	DC50	9.6

I = CS(=O)(=O)N1CCc2cccc(Nc3nc(Nc4ccc(N5CCC(N6CCN(CCC7CCN(c8ccc9c(c8)CN(C8CCC(=O)NC8=O)C9=O)CC7)CC6)CC5)c(F)c4)nc4[nH]ccc34)c21 (centres unmarked) [Example 18]
II = CS(=O)(=O)N1CCc2cccc(Nc3nc(Nc4ccc(N5CCC(N6CCN(CCOc7cccc8c7CN(C7CCC(=O)NC7=O)C8=O)CC6)CC5)c(F)c4)nc4[nH]ccc34)c21 (centres unmarked) [Example 20]
From the items above, decide which of I and II has the lower DC50 reading. Answer by quoting the chosen item's label.
II
(II: 9.7 nM, I: 14.1 nM)
